# System: HRgpA-6H (Porphyromonas gingivalis) (UniProt P28784)
# Test: ELISA, FASEBA Fab on coated HRgpA-6H
Metric Name: Ratio OD(Variant)/OD(WT)
Answer using only a numeral; do not append any unit.

Example cases with answers are listed next.
KB001 mouse Fab VL N54F (Fab, V domains shown) VH: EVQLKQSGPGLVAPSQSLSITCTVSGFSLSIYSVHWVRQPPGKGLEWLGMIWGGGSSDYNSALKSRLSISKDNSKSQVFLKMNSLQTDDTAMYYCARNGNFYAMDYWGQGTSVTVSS VL: QIVLTQSPAIMSASLGERVTMTCTASSSVSSSFLHWYQQKPGSSPQLWIYSTSFLASGVPARFSGSGSGTSYSLTISSMEAEDAATYYCHQYHHSPYIYTFGGGTKLEIK	0.976
KB001 mouse Fab VL T100K (Fab, V domains shown) VH: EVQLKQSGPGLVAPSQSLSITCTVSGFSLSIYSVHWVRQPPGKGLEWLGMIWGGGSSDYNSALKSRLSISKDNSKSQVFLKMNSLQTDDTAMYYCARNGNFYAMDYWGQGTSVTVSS VL: QIVLTQSPAIMSASLGERVTMTCTASSSVSSSFLHWYQQKPGSSPQLWIYSTSNLASGVPARFSGSGSGTSYSLTISSMEAEDAATYYCHQYHHSPYIYKFGGGTKLEIK	1.19
KB001 mouse Fab VL T24H (Fab, V domains shown) VH: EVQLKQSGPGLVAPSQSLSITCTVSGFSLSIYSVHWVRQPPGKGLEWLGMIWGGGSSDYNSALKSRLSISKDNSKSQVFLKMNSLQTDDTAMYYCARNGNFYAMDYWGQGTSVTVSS VL: QIVLTQSPAIMSASLGERVTMTCHASSSVSSSFLHWYQQKPGSSPQLWIYSTSNLASGVPARFSGSGSGTSYSLTISSMEAEDAATYYCHQYHHSPYIYTFGGGTKLEIK	1.03
KB001 mouse Fab VL T100W (Fab, V domains shown) VH: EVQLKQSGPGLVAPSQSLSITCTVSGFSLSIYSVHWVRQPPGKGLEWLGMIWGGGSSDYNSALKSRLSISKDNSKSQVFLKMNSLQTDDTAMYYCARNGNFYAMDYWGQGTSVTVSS VL: QIVLTQSPAIMSASLGERVTMTCTASSSVSSSFLHWYQQKPGSSPQLWIYSTSNLASGVPARFSGSGSGTSYSLTISSMEAEDAATYYCHQYHHSPYIYWFGGGTKLEIK	1.12

// switching to the query binder
Enquiry: I am curious: what Ratio OD(Variant)/OD(WT) value has been reported for KB001 mouse Fab VL S30M (Fab, V domains shown) VH: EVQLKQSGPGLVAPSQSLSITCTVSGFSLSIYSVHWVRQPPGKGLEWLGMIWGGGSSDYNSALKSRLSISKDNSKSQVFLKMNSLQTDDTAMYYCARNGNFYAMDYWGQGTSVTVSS VL: QIVLTQSPAIMSASLGERVTMTCTASSSVMSSFLHWYQQKPGSSPQLWIYSTSNLASGVPARFSGSGSGTSYSLTISSMEAEDAATYYCHQYHHSPYIYTFGGGTKLEIK ?
Return: 0.949
